- experiment notes: Pharmacokinetic parameter (Cmax ) was evaluated in Spargue-Dawley rat when given peroral at dose 80 mg/kg
- Assay type: ADME, organism-based
- Design: dose 80 mg/kg, route oral
- assay context: Sprague-Dawley, in vivo, po
metric name: Cmax (µM)
Numbers only here, please. The scale is µM.

Dear colleague, I am looking for the recorded Cmax of the following compound: `C[C@H](Sc1nc(N)cc(Cl)n1)c1cc2ccoc2cn1`
103

----------
IC50 for assorted compounds
- system tested: Human immunodeficiency virus type 1 reverse transcriptase (Human immunodeficiency virus 1, UniProt Q72547, Y188H)
- experiment notes: Inhibitory activity against Y188H mutant HIV-1 reverse transcriptase
Answer as a quantity: numeral, then unit.

> print(dat)
                                   compound  result
1  CC(Sc1nc(N)cc(Cl)n1)c1cc2ccoc2cn1 (configuration not stated)   55 nM

Alright, here's another compound for you.
Dear colleague, I am looking for the recorded IC50 of the following compound: `C[C@H](Sc1nc(N)cc(Cl)n1)c1cc2ccoc2cn1`
77 nM

----------
- experiment notes: Pharmacokinetic parameter (Cmax ) was evaluated in Spargue-Dawley rat when given intravenously at dose 15 mg/kg
- Type: ADME, organism-based
- Parameters: dose 15 mg/kg, route intravenous
- assay context: Sprague-Dawley, in vivo, iv
metric name: Cmax (µM)
Numbers only here, please. The scale is µM.

Dear colleague, I am looking for the recorded Cmax of the following molecule: `C[C@H](Sc1nc(N)cc(Cl)n1)c1cc2ccoc2cn1`
123
